# reported Urine P % of control; entries follow
tested on: phosphorus and calcium levels in the urine of rats; experiment: Urinary excretion of phosphate and calcium in rats (16 h overnight urine); format: in vivo, rat; conditions: rats, oral gavage, dose 10 mg/kg, 16 h post-dose
Form field: result (number plus unit)

[
  {
    "compound": "N=C(N)Nc1nc(-c2ccc(N3CCN(CCOCCOCCOCCNC(=O)CCOCCOCCOCCOCCOCCC(=O)NCCOCCOCCOCCN4CCN(c5ccc(-c6nc(NC(=N)N)nc7ccc(Cl)cc67)cc5)CC4)CC3)cc2)c2cc(Cl)ccc2n1 [compound 24]",
    "Urine P % of control": "80%"
  },
  {
    "compound": "CN1Cc2c(Cl)cc(Cl)cc2[C@H](c2cccc(S(=O)(=O)NCCOCCOCCOCCn3cc(CN(Cc4cn(CCOCCOCCOCCNS(=O)(=O)c5cccc([C@@H]6CN(C)Cc7c(Cl)cc(Cl)cc76)c5)nn4)Cc4cnnn4CCOCCOCCOCCNS(=O)(=O)c4cccc([C@@H]5CN(C)Cc6c(Cl)cc(Cl)cc65)c4)nn3)c2)C1 [compound 73]",
    "Urine P % of control": "49%"
  }
]

I am curious: what Urine P % of control value has been reported for CN(CC(=O)NCCOCCOCCOCCNS(=O)(=O)c1ccc(OC2c3ccccc3CC2N2CCCCC2)cc1)CC(=O)NCCOCCOCCOCCNS(=O)(=O)c1ccc(OC2c3ccccc3CC2N2CCCCC2)cc1 (centres unmarked) [compound 52] ? 71%

I am curious: what Urine P % of control value has been reported for O=C(O)CN(CCN(CC(=O)O)CC(=O)NCCOCCOCCNS(=O)(=O)c1ccc(O[C@H]2c3ccccc3C[C@@H]2N2CCCCC2)cc1)CC(=O)NCCOCCOCCNS(=O)(=O)c1ccc(O[C@H]2c3ccccc3C[C@@H]2N2CCCCC2)cc1 (racemic) [compound 48] ? 55%

I am curious: what Urine P % of control value has been reported for N=C(N)Nc1nc(-c2ccc(OCCOCCOCCOCCN)cc2)c2cc(Cl)ccc2n1 [compound 37] ? 101%

* * *

Molecular target: Rat NHE3 (Rattus norvegicus)
Construct: expressed in transfected cells; host or cells: Opossum kidney (OK) cells (ATCC), electroporation
Sequence (P26433 29-831): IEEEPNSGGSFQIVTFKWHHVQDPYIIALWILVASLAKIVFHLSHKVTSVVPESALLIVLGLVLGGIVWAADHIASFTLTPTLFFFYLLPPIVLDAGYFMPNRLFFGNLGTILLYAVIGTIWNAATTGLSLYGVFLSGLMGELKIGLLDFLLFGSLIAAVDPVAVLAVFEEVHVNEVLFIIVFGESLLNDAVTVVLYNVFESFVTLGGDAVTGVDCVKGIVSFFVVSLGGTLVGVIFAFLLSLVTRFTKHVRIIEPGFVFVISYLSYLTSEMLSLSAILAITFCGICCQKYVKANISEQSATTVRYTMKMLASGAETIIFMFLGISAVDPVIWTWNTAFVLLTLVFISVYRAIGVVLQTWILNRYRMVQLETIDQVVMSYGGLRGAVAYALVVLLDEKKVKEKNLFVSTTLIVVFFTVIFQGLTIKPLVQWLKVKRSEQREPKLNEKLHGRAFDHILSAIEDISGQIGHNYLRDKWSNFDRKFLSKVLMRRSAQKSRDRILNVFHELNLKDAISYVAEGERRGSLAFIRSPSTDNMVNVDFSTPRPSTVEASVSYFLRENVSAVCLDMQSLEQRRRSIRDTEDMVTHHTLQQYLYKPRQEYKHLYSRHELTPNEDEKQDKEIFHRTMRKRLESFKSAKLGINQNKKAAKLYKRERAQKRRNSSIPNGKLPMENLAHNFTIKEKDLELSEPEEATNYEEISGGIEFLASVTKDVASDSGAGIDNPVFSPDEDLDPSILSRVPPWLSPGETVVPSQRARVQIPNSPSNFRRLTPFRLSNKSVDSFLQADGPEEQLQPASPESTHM
Test: Cell-based NHE3 activity under prompt conditions (OK cells, BCECF pH recovery), rat NHE3
Details: prompt conditions
Method: Cell-based activity under Prompt Conditions. Rat or human NHE3-mediated Na^+-dependent H antiport was measured using a modification of the pH sensitive dye method originally reported by Paradiso (PNAS USA. 81:7436-7440, 1984). Opossum kidney (OK) cells were obtained from the ATCC and propagated per their instructions. […]
property: Prompt Rat NHE3 pIC50
Answer field: number only, no words.

See these solved cases before continuing.
[
  {
    "smiles-data": "CN1Cc2c(Cl)cc(Cl)cc2[C@H](c2cccc(S(=O)(=O)NCCOCCOCCNC(=O)CCC(CCC(=O)NCCOCCOCCNS(=O)(=O)c3cccc([C@@H]4CN(C)Cc5c(Cl)cc(Cl)cc54)c3)(CCC(=O)NCCOCCOCCNS(=O)(=O)c3cccc([C@@H]4CN(C)Cc5c(Cl)cc(Cl)cc54)c3)NC(N)=O)c2)C1",
    "Prompt Rat NHE3 pIC50": 6.50
  },
  {
    "smiles-data": "CN1Cc2c(Cl)cc(Cl)cc2[C@H](c2cccc(S(=O)(=O)NCCOCCOCCNC(=O)NCCC(N)(CCNC(=O)NCCOCCOCCNS(=O)(=O)c3cccc([C@@H]4CN(C)Cc5c(Cl)cc(Cl)cc54)c3)CCNC(=O)NCCOCCOCCNS(=O)(=O)c3cccc([C@@H]4CN(C)Cc5c(Cl)cc(Cl)cc54)c3)c2)C1",
    "Prompt Rat NHE3 pIC50": 7.35
  },
  {
    "smiles-data": "CN1Cc2c(Cl)cc(Cl)cc2[C@H](c2cccc(S(=O)(=O)NCCOCCOCCNC(=O)CCC(CCCNC(=O)NCCOCCOCCNS(=O)(=O)c3cccc([C@@H]4CN(C)Cc5c(Cl)cc(Cl)cc54)c3)(CCC(=O)NCCOCCOCCNS(=O)(=O)c3cccc([C@@H]4CN(C)Cc5c(Cl)cc(Cl)cc54)c3)NC(=O)NCP(=O)(O)O)c2)C1",
    "Prompt Rat NHE3 pIC50": 7.30
  },
  {
    "smiles-data": "CN1Cc2c(Cl)cc(Cl)cc2[C@H](c2cccc(S(=O)(=O)NCCOCCOCCOCCNC(=O)CN(CC(=O)NCCOCCOCCOCCNS(=O)(=O)c3cccc([C@@H]4CN(C)Cc5c(Cl)cc(Cl)cc54)c3)CC(=O)NCCOCCOCCOCCNS(=O)(=O)c3cccc([C@@H]4CN(C)Cc5c(Cl)cc(Cl)cc54)c3)c2)C1",
    "Prompt Rat NHE3 pIC50": 7.10
  }
]

Next item in the queue.
I am curious: what Prompt Rat NHE3 pIC50 value has been reported for CN1Cc2c(Cl)cc(Cl)cc2[C@H](c2cccc(S(=O)(=O)NCCOCCOCCOCCNC(=O)CC(O)(CC(=O)NCCOCCOCCOCCNS(=O)(=O)c3cccc([C@@H]4CN(C)Cc5c(Cl)cc(Cl)cc54)c3)C(=O)NCCOCCOCCOCCNS(=O)(=O)c3cccc([C@@H]4CN(C)Cc5c(Cl)cc(Cl)cc54)c3)c2)C1 ? 7.00
